# Species on record: Canis familiaris
# assay_overview: Evaluated for contraction of dog saphenous vein
# Format: functional, organism-based
# condition_label: Canis lupus familiaris, read-out: pA2 (converted)
metric: log10 of Kb (log10 of the value in nM)

compound="CC(CC(CCCCNS(=O)(=O)c1ccc(Cl)cc1)CCCc1cccnc1)C(=O)O (stereo not given)" val=0.17
compound="O=C(O)CCC(CCCCNS(=O)(=O)c1ccc(Cl)cc1)CCCn1ccnc1 (stereo not given)" val=0.74
compound="CC(C)(CC(CCCCNS(=O)(=O)c1ccc(Cl)cc1)CCCc1cccnc1)C(=O)O (stereo not given)" val=0.00
compound="O=C(O)CCC(CCCCNS(=O)(=O)c1ccc(Cl)cc1)CCCc1ccc[n+]([O-])c1 (stereo not given)" val=0.87
compound="O=S(=O)(NCCCCC(CCCc1cccnc1)CCC1N=NN=N1)c1ccc(Cl)cc1 (stereo not given)" val=-0.33
